assay: Cytotoxicity against human A2780 cells by MTT assay; assay type: functional, cell-based
Below, each entry is listed alongside its reported pIC50.
Value format note: pIC50 is -log10 of concentration (mol/L); just state the number.

entry_smiles=C[C@H]1CCC[C@@H](O)/C=C/C=C\C(=O)CCC(=O)O1 quantitative_result=4.44

Req: Consider the molecule `C[C@H]1CCC[C@@H](O)/C=C/C=C\[C@H](O)/C=C/C(=O)O1` and give its measured pIC50.
Resp: 5.92

Req: Next record, please: `C[C@H]1CCC[C@@H](O)/C=C/C=C\[C@@H](O)/C=C/C(=O)O1`
Resp: 4.92

Req: Please give the result for `CO[C@H]1/C=C\CCC[C@H](C)OC(=O)/C=C/[C@@H](O)/C=C\1` too.
Resp: 4.55

Req: `C[C@H]1CCC/C=C\[C@H](O)/C=C\[C@H](O)/C=C/C(=O)O1` ?
Resp: 4.37
